- TARGET_ENTITY: Adenosine receptor A2a (Homo sapiens, UniProt P29274)
- Sequence (P29274 whole entry): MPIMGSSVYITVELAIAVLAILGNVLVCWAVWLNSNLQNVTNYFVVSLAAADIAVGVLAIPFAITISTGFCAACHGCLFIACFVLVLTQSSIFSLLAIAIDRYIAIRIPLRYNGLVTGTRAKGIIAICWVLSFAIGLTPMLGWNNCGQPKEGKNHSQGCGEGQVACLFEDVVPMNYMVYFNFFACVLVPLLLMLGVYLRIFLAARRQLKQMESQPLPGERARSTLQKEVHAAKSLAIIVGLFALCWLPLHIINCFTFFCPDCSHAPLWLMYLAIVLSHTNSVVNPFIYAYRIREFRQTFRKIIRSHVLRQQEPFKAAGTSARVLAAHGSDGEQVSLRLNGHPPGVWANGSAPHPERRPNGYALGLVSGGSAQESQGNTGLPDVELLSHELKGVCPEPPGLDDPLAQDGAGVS
- PROCEDURE_DETAILS: Displacement of [3H]-SCH- 58261 from human adenosine A2A receptor expressed in CHO cells; range 267-453
- Assay type: cell-based
MEASURED_ATTRIBUTE: pKi
Hey, just a heads up that pKi is the negative log base 10 of the concentration in molar.

Form: compound = `Nc1nc2nn(CCc3cc(Br)c(Br)cc3Br)cc2c2nc(-c3ccco3)nn12` ; pKi = 6.46

###

- TARGET_ENTITY: UniProt P29275
- Sequence (P29275 whole entry): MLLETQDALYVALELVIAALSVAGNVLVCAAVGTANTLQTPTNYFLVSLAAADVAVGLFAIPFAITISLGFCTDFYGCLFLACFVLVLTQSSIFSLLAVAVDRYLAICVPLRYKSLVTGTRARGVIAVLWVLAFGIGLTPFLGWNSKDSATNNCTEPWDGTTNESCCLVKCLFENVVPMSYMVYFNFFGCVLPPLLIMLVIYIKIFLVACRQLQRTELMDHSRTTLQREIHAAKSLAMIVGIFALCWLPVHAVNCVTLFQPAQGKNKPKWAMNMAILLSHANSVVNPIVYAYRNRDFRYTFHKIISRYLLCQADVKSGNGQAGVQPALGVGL
- PROCEDURE_DETAILS: Displacement of [3H]DPCPX from Adenosine A2b receptor expressed in CHO cells; range 45-64
- Type: cell-based
- STUDY_CONDITIONS: in the assay text read “HEK-293 cells” for “CHO cells”
MEASURED_ATTRIBUTE: pKi
Note on units: pKi is unitless, being -log10 of a concentration expressed in mol/L.

Bench note, UniProt P29275: `COc1ccc(NC(=O)Nc2nc3nn(CCC(C)C)cc3c3nc(-c4ccco4)nn23)cc1` , pKi reads 7.27
